target: Mitogen-activated protein kinase kinase kinase 11 (Homo sapiens)
Sequence (Q16584 whole entry): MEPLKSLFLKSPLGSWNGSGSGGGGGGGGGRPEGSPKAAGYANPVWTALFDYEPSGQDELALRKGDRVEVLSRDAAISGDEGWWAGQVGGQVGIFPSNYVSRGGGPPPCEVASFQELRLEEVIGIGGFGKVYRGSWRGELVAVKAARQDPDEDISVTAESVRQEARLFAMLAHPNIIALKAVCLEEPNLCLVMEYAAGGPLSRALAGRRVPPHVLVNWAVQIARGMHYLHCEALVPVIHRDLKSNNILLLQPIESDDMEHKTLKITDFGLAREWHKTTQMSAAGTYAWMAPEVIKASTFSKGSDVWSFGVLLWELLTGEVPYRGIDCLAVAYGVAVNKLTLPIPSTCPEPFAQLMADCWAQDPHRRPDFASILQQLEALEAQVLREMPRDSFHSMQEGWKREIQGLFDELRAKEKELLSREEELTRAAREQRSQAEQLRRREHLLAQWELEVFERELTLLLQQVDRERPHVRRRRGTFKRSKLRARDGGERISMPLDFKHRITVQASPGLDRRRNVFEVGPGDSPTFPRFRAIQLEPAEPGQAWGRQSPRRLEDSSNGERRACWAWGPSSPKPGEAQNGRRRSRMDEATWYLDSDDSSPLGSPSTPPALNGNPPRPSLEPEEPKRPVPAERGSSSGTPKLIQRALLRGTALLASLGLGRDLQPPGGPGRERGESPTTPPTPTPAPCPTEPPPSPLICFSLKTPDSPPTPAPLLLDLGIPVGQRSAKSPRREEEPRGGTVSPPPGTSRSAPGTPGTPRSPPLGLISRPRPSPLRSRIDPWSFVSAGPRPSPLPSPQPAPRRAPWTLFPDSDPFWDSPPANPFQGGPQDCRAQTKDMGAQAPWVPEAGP
Value type: pIC50
When answering, recall that pIC50 equals minus log10 of the concentration in mol/L, and write that number alone.

Task: Quick one: give measured pIC50 for CC(C)c1cc(Nc2nc(N3CCC[C@H](N)C3)ncc2C(N)=O)cc(C(C)C)n1
Output: 5.56

###

Target: Dual specificity mitogen-activated protein kinase kinase 5 (Homo sapiens)
Sequence (Q13163 whole entry): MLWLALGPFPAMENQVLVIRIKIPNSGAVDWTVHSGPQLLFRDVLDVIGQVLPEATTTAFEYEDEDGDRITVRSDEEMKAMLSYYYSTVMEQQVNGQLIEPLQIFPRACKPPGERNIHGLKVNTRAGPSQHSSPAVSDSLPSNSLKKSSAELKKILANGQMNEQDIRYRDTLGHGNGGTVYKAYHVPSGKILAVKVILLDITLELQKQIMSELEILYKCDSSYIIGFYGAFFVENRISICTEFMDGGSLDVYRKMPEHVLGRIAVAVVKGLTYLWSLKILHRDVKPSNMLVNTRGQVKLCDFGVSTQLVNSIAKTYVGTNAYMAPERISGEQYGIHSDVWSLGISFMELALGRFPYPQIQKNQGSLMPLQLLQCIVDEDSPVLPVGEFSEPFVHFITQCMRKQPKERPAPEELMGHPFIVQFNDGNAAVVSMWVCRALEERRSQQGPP
Value type: pIC50
pIC50 is defined as minus the log10 of a concentration measured in mol/L.

Task: Please give the documented pIC50 of CC(C)c1cc(Nc2nc(N3CCC[C@H](N)C3)ncc2C(N)=O)cc(C(C)C)n1
Output: 7.60

###

assay: Drug metabolism in human microsomes; assay type: ADME, Microsome; conditions: read-out: Drug metabolism
Value type: microsomal CLint (µL/min/mg)
Hi! Could you send only the number? It should be in µL/min/mg, unit omitted.

Task: Supply reported microsomal CLint belonging to this molecule: CC(C)(C#N)c1cc(Nc2nc(N3CCC[C@H](N)C3)ncc2C(N)=O)cc(C(C)(C)C#N)c1
Output: 13
